- system: LHRH (Rattus norvegicus, UniProt P30969)
- Construct: endogenous in cells; host or cells: rat pituitary cells (own knowledge of the cited Haviv 1989 method)
- Sequence (P30969 whole entry): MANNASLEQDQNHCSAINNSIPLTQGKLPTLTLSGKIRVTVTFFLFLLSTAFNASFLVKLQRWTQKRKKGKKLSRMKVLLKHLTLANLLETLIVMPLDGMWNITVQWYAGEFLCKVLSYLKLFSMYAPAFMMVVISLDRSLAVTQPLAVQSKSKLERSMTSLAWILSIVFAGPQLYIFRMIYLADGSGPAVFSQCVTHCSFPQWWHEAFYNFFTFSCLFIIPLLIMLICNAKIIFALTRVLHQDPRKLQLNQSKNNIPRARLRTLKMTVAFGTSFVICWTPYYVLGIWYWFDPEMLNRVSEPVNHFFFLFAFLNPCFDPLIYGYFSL
- method-notes: in vitro test for LHRH antagonist potency (pA2)
- Type: cell-based
- run-conditions: negative logarithm of the antagonist concentration required to shift the response curve produced by the agonist leuprolide to two-fold higher concentration
Non-standard residues stand in square brackets, D forms with d. Residues, ends and D or L forms follow the SMILES beside them. Groups on a side chain read outwards from the residue. *: point of attachment. Shikimoyl = O=C(C1=C[C@@H](O)[C@@H](O)[C@H](O)C1)*; dPhe(4-Cl) = N[C@H](Cc1ccc(Cl)cc1)C(=O)O; d2Nal = N[C@H](Cc1ccc2ccccc2c1)C(=O)O; Lys(iPr) = CC(C)NCCCC[C@H](N)C(=O)O; NMeY = CN[C@@H](Cc1ccc(O)cc1)C(=O)O; X10 = Cc1ccc(S(=O)(=O)NNC(=O)*)cc1; dCit = NC(=O)NCCC[C@@H](N)C(=O)O; hArg = N=C(N)NCCCC[C@H](N)C(=O)O; d3Pal = N[C@H](Cc1cccnc1)C(=O)O; NMeL = CN[C@@H](CC(C)C)C(=O)O; Nicotinoyl = O=C(c1cccnc1)*; 2Furoyl = O=C(c1ccco1)*; Aze = O=C(O)[C@@H]1CCN1; azaGly = NNC(=O)O; βAla = NCCC(=O)O
property: Kb (nM)
Reply numerically in nM, unit not repeated.

| compound | uom | Kb |
| --- | --- | --- |
| CC(C)C[C@H](NC(=O)[C@@H](CCCCNC(=O)NNC(=O)c1cccnc1)NC(=O)[C@H](Cc1ccc(O)cc1)N(C)C(=O)[C@H](CO)NC(=O)[C@@H](Cc1cccnc1)NC(=O)[C@@H](Cc1ccc(Cl)cc1)NC(=O)[C@@H](Cc1ccc2ccccc2c1)NC(=O)CNC(=O)c1cccnc1)C(=O)N[C@@H](CCCCNC(C)C)C(=O)N1CCC[C@H]1C(=O)N[C@H](C)C(N)=O [Example 9] (Nicotinoyl-G[d2Nal][dPhe(4-Cl)][d3Pal]S[NMeY][dK]([azaGly-Nicotinoyl])L[Lys(iPr)]P[dA]-NH2) | nM | 0.0347 |
| CC(C)C[C@H](NC(=O)[C@@H](CCCNC(N)=O)NC(=O)[C@H](Cc1ccc(O)cc1)N(C)C(=O)[C@H](CO)NC(=O)[C@@H](Cc1cccnc1)NC(=O)[C@@H](Cc1ccc(Cl)cc1)NC(=O)[C@@H](Cc1ccc2ccccc2c1)NC(=O)c1ccco1)C(=O)N[C@@H](CCCNC(=N)N)C(=O)N1CCC[C@H]1C(=O)N[C@H](C)C(N)=O [Example 78d] (2Furoyl-[d2Nal][dPhe(4-Cl)][d3Pal]S[NMeY][dCit]LRP[dA]-NH2) | nM | 0.00794 |
| CC(C)C[C@H](NC(=O)[C@@H](CCCCNC(=O)c1cccnc1)NC(=O)[C@H](Cc1ccc(O)cc1)N(C)C(=O)[C@H](CO)NC(=O)[C@@H](Cc1cccnc1)NC(=O)[C@@H](Cc1ccc(Cl)cc1)NC(=O)[C@@H](Cc1ccc2ccccc2c1)NC(=O)CNC(=O)[C@@H]1CCCO1)C(=O)N[C@@H](CCCCNC(C)C)C(=O)N1CCC[C@H]1C(=O)N[C@H](C)C(N)=O [Example 4] | nM | 0.00794 |
| CC(C)C[C@@H](C(=O)N[C@@H](CCCNC(=N)N)C(=O)N1CCC[C@H]1C(=O)N[C@H](C)C(N)=O)N(C)C(=O)[C@@H](CCCCNC(=O)C1=C[C@@H](O)[C@@H](O)[C@H](O)C1)NC(=O)[C@H](Cc1ccc(O)cc1)N(C)C(=O)[C@H](CO)NC(=O)[C@@H](Cc1cccnc1)NC(=O)[C@@H](Cc1ccc(Cl)cc1)NC(=O)[C@@H](Cc1ccc2ccccc2c1)NC(=O)CNC(=O)c1cccnc1 [Example 23b] (Nicotinoyl-G[d2Nal][dPhe(4-Cl)][d3Pal]S[NMeY][dK](Shikimoyl)[NMeL]RP[dA]-NH2) | nM | 0.0186 |
| CC(C)C[C@H](NC(=O)[C@@H](CCCCNC(=O)c1cccnc1)NC(=O)[C@H](Cc1ccc(O)cc1)N(C)C(=O)[C@H](CO)NC(=O)[C@@H](Cc1cccnc1)NC(=O)[C@@H](Cc1ccc(Cl)cc1)NC(=O)[C@@H](Cc1ccc2ccccc2c1)NC(=O)CCNC(=O)C1=C[C@@H](O)[C@@H](O)[C@H](O)C1)C(=O)N[C@@H](CCCCNC(C)C)C(=O)N1CCC[C@H]1C(=O)N[C@H](C)C(N)=O [Example 6b] ({Shikimoyl-βAla}-[d2Nal][dPhe(4-Cl)][d3Pal]S[NMeY][dK](Nicotinoyl)L[Lys(iPr)]P[dA]-NH2) | nM | 0.0158 |
| CC(C)C[C@H](NC(=O)[C@@H](CCCCNC(=O)CNC(=O)c1cccnc1)NC(=O)[C@H](Cc1ccc(O)cc1)N(C)C(=O)[C@H](CO)NC(=O)[C@@H](Cc1cccnc1)NC(=O)[C@@H](Cc1ccc(Cl)cc1)NC(=O)[C@@H](Cc1ccc2ccccc2c1)NC(=O)CNC(=O)C1CCCO1)C(=O)N[C@@H](CCCNC(=N)N)C(=O)N1CCC[C@H]1C(=O)N[C@H](C)C(N)=O (mixture of isomers) [Example 27b] | nM | 0.0135 |

Query string: Which Kb reading was recorded for the compound CC(C)C[C@H](NC(=O)[C@@H](CCCCNC(=O)c1cccnc1)NC(=O)[C@H](Cc1ccc(O)cc1)N(C)C(=O)[C@H](CO)NC(=O)[C@@H](Cc1cccnc1)NC(=O)[C@@H](Cc1ccc(Cl)cc1)NC(=O)[C@@H](Cc1ccc2ccccc2c1)NC(=O)CNC(=O)C1=C[C@@H](O)[C@@H](O)[C@H](O)C1)C(=O)N[C@@H](CCCNC(=N)N)C(=O)N1CC[C@H]1C(=O)N[C@H](C)C(N)=O [Example 27c] (Shikimoyl-G[d2Nal][dPhe(4-Cl)][d3Pal]S[NMeY][dK](Nicotinoyl)LR[Aze][dA]-NH2) ?
Result string: 0.0977

Query string: Which Kb reading was recorded for the compound CC(C)C[C@H](NC(=O)[C@@H](CCCCNC(=O)C1=C[C@@H](O)[C@@H](O)[C@H](O)C1)NC(=O)[C@H](Cc1ccc(O)cc1)N(C)C(=O)[C@H](CO)NC(=O)[C@@H](Cc1cccnc1)NC(=O)[C@@H](Cc1ccc(Cl)cc1)NC(=O)[C@@H](Cc1ccc2ccccc2c1)NC(=O)C1=C[C@@H](O)[C@@H](O)[C@H](O)C1)C(=O)N[C@@H](CCCCNC(=N)N)C(=O)N1CCC[C@H]1C(=O)N[C@H](C)C(N)=O [Example 79] (Shikimoyl-[d2Nal][dPhe(4-Cl)][d3Pal]S[NMeY][dK](Shikimoyl)L[hArg]P[dA]-NH2) ?
Result string: 0.0195

Query string: Which Kb reading was recorded for the compound Cc1ccc(S(=O)(=O)NNC(=O)N[C@H](Cc2ccc3ccccc3c2)C(=O)N[C@H](Cc2ccc(Cl)cc2)C(=O)N[C@H](Cc2cccnc2)C(=O)N[C@@H](CO)C(=O)N(C)[C@@H](Cc2ccc(O)cc2)C(=O)N[C@H](CCCCNC(=O)c2cccnc2)C(=O)N[C@@H](CC(C)C)C(=O)N[C@@H](CCCCNC(C)C)C(=O)N2CCC[C@H]2C(=O)N[C@H](C)C(N)=O)cc1 [Example 37e] (X10-[d2Nal][dPhe(4-Cl)][d3Pal]S[NMeY][dK](Nicotinoyl)L[Lys(iPr)]P[dA]-NH2) ?
Result string: 0.0224
